Molecular target: Fatty-acid amide hydrolase 1 (Mus musculus)
Sequence (O08914 whole entry): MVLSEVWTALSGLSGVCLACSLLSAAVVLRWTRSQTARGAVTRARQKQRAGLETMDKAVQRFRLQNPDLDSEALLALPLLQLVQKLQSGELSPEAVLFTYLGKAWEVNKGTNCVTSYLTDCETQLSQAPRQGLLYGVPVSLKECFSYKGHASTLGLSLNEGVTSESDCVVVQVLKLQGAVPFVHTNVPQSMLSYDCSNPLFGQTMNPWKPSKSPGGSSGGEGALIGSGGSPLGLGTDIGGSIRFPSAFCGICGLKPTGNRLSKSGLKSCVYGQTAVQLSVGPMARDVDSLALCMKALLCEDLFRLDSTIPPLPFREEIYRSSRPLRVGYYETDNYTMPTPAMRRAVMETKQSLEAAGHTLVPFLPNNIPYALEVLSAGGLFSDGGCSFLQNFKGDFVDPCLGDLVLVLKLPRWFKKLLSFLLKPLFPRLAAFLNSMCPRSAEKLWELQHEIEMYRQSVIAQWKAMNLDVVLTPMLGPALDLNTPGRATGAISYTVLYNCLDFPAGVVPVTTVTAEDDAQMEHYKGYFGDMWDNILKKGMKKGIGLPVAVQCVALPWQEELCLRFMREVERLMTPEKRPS
Assay readout: IC50 (nM)

1. O=C(c1ncc(-c2ccccn2)o1)[C@H]1COc2cc(Oc3ccccc3)ccc2C1
2. O=C(c1ncc(-c2ccccn2)o1)[C@@H]1COc2cc(Oc3ccccc3)ccc2C1
[in] Hi, I'm comparing 1 with 2 and wondering which one has the bigger number for IC50. Any idea? # answer = label of selected item
[out] 2

====

Molecular target: Fatty-acid amide hydrolase 1 (Homo sapiens)
Sequence (O00519 whole entry): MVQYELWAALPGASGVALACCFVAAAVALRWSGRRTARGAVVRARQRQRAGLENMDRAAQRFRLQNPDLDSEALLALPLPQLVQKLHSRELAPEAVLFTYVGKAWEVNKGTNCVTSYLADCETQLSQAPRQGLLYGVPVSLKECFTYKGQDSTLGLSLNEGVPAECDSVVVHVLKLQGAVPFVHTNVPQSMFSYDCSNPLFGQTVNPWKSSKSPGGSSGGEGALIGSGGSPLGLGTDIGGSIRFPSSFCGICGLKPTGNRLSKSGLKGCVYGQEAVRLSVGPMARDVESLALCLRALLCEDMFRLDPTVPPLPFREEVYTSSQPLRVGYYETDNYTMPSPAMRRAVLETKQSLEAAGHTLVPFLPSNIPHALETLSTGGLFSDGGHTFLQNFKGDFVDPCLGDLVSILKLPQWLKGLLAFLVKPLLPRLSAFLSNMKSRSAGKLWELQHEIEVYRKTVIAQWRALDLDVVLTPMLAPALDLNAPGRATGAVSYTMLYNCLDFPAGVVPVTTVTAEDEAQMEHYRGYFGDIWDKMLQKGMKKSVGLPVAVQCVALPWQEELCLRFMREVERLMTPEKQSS
Assay readout: pKi
Please report pKi as the negative decimal logarithm of the molar concentration, giving only the number.

// CCCCCCC(C)OC(=O)C(Br)C(C)=O (stereo unspecified) : pKi value = 6.10

====

Measured pIC50, listed per entry for reference.
Target: Monoglyceride lipase (Mus musculus)
Sequence (O35678 whole entry): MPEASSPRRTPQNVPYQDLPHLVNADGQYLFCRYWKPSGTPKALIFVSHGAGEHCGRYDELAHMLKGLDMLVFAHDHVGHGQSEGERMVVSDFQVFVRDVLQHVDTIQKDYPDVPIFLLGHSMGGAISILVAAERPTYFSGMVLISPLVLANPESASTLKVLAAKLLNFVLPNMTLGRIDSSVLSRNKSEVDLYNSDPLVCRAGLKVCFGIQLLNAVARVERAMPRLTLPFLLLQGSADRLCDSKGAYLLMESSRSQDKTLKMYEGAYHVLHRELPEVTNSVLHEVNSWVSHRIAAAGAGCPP
pIC50: −log10 of the molar value.

INSERT INTO results (compound, experimental_value) VALUES
  ('O=C(c1ncc(-c2ccccn2)o1)C1CCc2cc(Oc3ccccc3)ccc2O1 (single isomer, unassigned)', '< 4.00');

With those in mind, consider the next compound.
The value of pIC50 measured for the compound O=C(c1ncc(-c2ccccn2)o1)[C@H]1COc2cc(Oc3ccccc3)ccc2C1 turned out to be < 4.00

====

Biological target: UniProt:P97612
Experiment: Inhibition of rat recombinant FAAH expressed in Escherichia coli using [14C]oleamide as substrate assessed as oleic acid formation by Dixon plot analysis
pKi: −log10 of the molar value.
Assay readout: pKi

INSERT INTO measurements (molecule, experimental_value) VALUES
  ('O=C(c1ncco1)C1CCc2cc(Oc3ccccc3)ccc2O1 (single isomer, unassigned; enantiomer 1)', 7.77),
  ('O=C(c1ncc(-c2ccccn2)o1)C1COc2cc(OCc3ccccc3)ccc2C1 (racemic)', 7.77),
  ('O=C(c1ncc(-c2ccccn2)o1)[C@H]1COc2cc(Oc3ccccc3)ccc2C1', 7.74),
  ('O=C(c1ncc(-c2ccccn2)o1)[C@@H]1COc2cc(Oc3ccccc3)ccc2C1', 7.57),
  ('O=C(c1ncc(I)o1)[C@H]1COc2cc(Oc3ccccc3)ccc2C1', 7.70);

====

Target: Fatty-acid amide hydrolase 1 (Rattus norvegicus, UniProt P97612)
Sequence (P97612 whole entry): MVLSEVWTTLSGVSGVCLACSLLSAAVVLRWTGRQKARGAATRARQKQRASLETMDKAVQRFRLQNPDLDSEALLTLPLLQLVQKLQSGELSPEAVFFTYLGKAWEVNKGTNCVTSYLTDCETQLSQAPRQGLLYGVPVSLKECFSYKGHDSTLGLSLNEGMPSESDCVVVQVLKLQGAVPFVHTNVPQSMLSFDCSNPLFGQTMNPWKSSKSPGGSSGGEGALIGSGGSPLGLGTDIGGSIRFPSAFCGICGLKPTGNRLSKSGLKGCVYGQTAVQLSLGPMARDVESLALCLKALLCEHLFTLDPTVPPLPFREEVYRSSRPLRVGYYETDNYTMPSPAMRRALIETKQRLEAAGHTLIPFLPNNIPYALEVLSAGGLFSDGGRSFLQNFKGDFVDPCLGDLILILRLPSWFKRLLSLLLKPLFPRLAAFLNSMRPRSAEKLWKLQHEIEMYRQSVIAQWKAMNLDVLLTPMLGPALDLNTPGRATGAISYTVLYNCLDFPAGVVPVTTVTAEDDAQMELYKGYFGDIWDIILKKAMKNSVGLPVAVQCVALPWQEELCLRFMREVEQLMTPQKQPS
Assay: Inhibition of rat recombinant FAAH expressed in Escherichia coli using [14C]oleamide as substrate assessed as oleic acid formation by Dixon plot analysis
Assay readout: Ki (nM)

Consider the worked cases shown below.
INSERT INTO results (compound, measured_target, unit_of_measurement, experimental_value) VALUES
  ('O=C(c1ncc(-c2ccccn2)o1)[C@@H]1COc2cc(-c3ccccc3)ccc2C1', 'Fatty-acid amide hydrolase 1 (Rattus norvegicus, UniProt P97612)', 'nM', 11),
  ('COC(=O)c1cccc(-c2cnc(C(=O)C3CCc4cc(Oc5ccccc5)ccc4O3)o2)n1 (single isomer, unassigned; enantiomer 1)', 'Fatty-acid amide hydrolase 1 (Rattus norvegicus, UniProt P97612)', 'nM', 94),
  ('O=C(c1ncco1)[C@@H]1COc2cc(-c3ccccc3)ccc2C1', 'Fatty-acid amide hydrolase 1 (Rattus norvegicus, UniProt P97612)', 'nM', 32),
  ('O=C(c1ncc(-c2ccccn2)o1)[C@@H]1COc2cc(OCc3ccccc3)ccc2C1', 'Fatty-acid amide hydrolase 1 (Rattus norvegicus, UniProt P97612)', 'nM', 17),
  ('O=C(c1ncc(I)o1)[C@@H]1COc2cc(Oc3ccccc3)ccc2C1', 'Fatty-acid amide hydrolase 1 (Rattus norvegicus, UniProt P97612)', 'nM', 31);

a. COC(=O)c1cccc(-c2cnc(C(=O)C3CCc4cc(Oc5ccccc5)ccc4O3)o2)n1 (single isomer, unassigned; enantiomer 2)
b. O=C(c1ncco1)C1COc2cc(Oc3ccccc3)ccc2C1 (racemic)
c. O=C(c1ncco1)[C@H]1COc2cc(OCc3ccccc3)ccc2C1
[in] Put the items in sequence by Ki, from largest down. # respond with the labels, arranged in the requested order
[out] a, b, c

a. O=C(c1ncco1)C1CCc2cc(Oc3ccccc3)ccc2O1 (single isomer, unassigned; enantiomer 2)
b. O=C(c1ncc(-c2ccccn2)o1)C1CCc2cc(Oc3ccccc3)ccc2O1 (single isomer, unassigned; enantiomer 2)
[in] Input pair: a , b . Output: entry with lower Ki. Answer by quoting the chosen item's label.
[out] a
(a: 31 nM, b: 120 nM)

====

Target: UniProt:P97612
Sequence (P97612 whole entry): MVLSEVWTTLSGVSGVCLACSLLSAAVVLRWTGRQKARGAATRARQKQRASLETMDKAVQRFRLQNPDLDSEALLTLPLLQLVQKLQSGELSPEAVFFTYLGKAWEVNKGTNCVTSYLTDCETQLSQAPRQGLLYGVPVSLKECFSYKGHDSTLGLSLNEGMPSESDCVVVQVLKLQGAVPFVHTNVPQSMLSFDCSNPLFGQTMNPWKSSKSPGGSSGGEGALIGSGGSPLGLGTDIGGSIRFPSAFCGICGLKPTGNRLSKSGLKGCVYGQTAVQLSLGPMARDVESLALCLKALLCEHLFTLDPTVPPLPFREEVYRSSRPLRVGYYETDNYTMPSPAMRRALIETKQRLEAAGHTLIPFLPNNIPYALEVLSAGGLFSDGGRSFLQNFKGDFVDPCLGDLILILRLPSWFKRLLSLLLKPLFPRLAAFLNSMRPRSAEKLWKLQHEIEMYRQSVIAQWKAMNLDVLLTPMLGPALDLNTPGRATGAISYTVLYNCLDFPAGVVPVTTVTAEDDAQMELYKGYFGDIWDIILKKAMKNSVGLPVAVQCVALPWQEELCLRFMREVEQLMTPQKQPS
Experiment: Inhibition of rat recombinant FAAH expressed in Escherichia coli using [14C]oleamide as substrate assessed as oleic acid formation by Dixon plot analysis
Assay readout: Ki (nM)

Field: example entries. Status: answers known.
INSERT INTO assay_data (molecule, unit_of_measurement, experimental_value) VALUES
  ('O=C(c1ncc(-c2ccccn2)o1)[C@H]1CCc2cc(Oc3ccccc3)ccc2C1', 'nM', 4.4),
  ('O=C(c1ncco1)[C@@H]1COc2cc(OCc3ccccc3)ccc2C1', 'nM', 16);

1. COC(=O)c1cccc(-c2cnc(C(=O)[C@H]3COc4cc(Oc5ccccc5)ccc4C3)o2)n1
2. COC(=O)c1cccc(-c2cnc(C(=O)[C@@H]3COc4cc(Oc5ccccc5)ccc4C3)o2)n1
[in] Hi, I'm comparing two records. Which one has the lower Ki, 1 or 2 ? Give the label under which the chosen entry appears.
[out] 1

A. O=C(c1ncc(-c2ccccn2)o1)C1CCc2cc(Oc3ccccc3)ccc2O1 (single isomer, unassigned)
B. O=C(c1ncc(-c2ccccn2)o1)[C@H]1COc2cc(-c3ccccc3)ccc2C1
[in] Hey, which is lower on measured Ki, A or B ? Please identify the chosen entry by its label.
[out] B
(B: 23 nM, A: 36 nM)

Just for reference, ChEMBL document CHEMBL3259544 is where these values come from.
